targetDesc: T1, human PD-L1 (full-length, expressed on CHO cells) (human, UniProt Q9NZQ7 19-290)
T1 construct: also called huPD-L1; CD274
T1 sequence (Q9NZQ7 19-290): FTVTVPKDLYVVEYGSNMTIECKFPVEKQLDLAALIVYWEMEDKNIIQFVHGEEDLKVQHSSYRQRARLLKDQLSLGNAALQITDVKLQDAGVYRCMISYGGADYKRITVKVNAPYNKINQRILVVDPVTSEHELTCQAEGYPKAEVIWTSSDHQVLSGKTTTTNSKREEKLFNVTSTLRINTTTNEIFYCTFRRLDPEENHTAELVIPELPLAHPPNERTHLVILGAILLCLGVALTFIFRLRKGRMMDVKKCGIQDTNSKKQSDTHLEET
testDescription: flow cytometry, CHO cells expressing huPD-L1, PE anti-human Fc
Reported MFI at 33.3 nM values for the following binders.

binder: variant CD80 IgV-Fc Q33K/E35D/D46V/L85Q (Fc fusion, not shown: a dimerising Fc or GST) VIHVTKEVKEVATLSCGHNVSVEELAQTRIYWKKDKKMVLTMMSGVMNIWPEYKNRTIFDITNNLSIVILALRPSDEGTYECVVQKYEKDAFKREHLAEVTLSVKAD
unitDescriptor: MFI
MFI at 33.3 nM: 26700
//
binder: variant CD80 IgV-Fc H18Y/E35D/M47L (Fc fusion, not shown: a dimerising Fc or GST) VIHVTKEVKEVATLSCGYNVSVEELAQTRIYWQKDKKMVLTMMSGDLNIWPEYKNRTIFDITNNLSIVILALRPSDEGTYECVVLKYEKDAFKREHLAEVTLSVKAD
unitDescriptor: MFI
MFI at 33.3 nM: 44200
